Data provenance: patent US7569577B2

readout: melting point (°C)

Past entries and their recorded results:
molecule: COc1cc2c(Nc3ccc(F)c(Cl)c3)ncnc2cc1OC1CCN(C(=O)[C@@H](C)O)CC1 (hydrate or solvate) [Example 23]
melting point / °C: 143.6
//
molecule: COc1cc2c(Nc3ccc(Cl)cc3F)ncnc2cc1OC1CCN(C(=O)[C@H](C)O)CC1 (hydrate or solvate) [Example 32]
melting point / °C: 149

(1) COc1cc2c(Nc3cccc(Cl)c3F)ncnc2cc1OC1CCN(C(=O)[C@@H]2CCCN2C)CC1 (hydrate or solvate) [Example 34]
(2) COc1cc2c(Nc3ccc(Cl)cc3F)ncnc2cc1OC1CCN(C(=O)[C@@H](C)O)CC1 (hydrate or solvate) [Example 33]
// select label with min value of measured melting point from [ 1 , 2 ] Provide the label of your selected option as the answer. 2
(2: 118 °C, 1: 193 °C)
